Target under test: HLA-B*15:01
Assay context: chains peptide; modification not given
pIC50: −log10 of the molar value.
Metric name: pIC50

• RQWFFDLPL [SEQ ID NO: 310 serotype 3] = 7.10
